These compounds were tested on Serine/threonine-protein kinase 26 (Homo sapiens); ΔTm is the recorded read-out.
propertyName: ΔTm (°C)

{"columns": ["compound", "readoutNumber"],
 "data": [
  ["CCCNC(=O)Nc1ccc(Oc2ncnc3cc(OC)c(OC)cc23)cc1Cl [KRN-633]", -0.1],
  ["COc1ccc(COc2ccc(Cc3cnc(N)nc3N)cc2OC)cc1", 0],
  ["O=C(O)/C=C/c1cc(CO)ccc1CO", 0.2],
  ["O=C1Cc2c([nH]c3ccc([N+](=O)[O-])cc23)-c2ccccc2N1", 1.3],
  ["COc1ccc(S(=O)(=O)N(CCO)c2ccccc2CN(C)C/C=C/c2ccc(Cl)cc2)cc1", -0.1],
  ["CN(C)C[C@@H]1CCn2cc(c3ccccc32)C2=C(C(=O)NC2=O)c2cn(c3ccccc23)CCO1 [RUBOXISTAURIN]", 4.1],
  ["O=C1Nc2ccc(I)cc2/C1=C1/Nc2ccccc2/C1=N\\O", 0],
  ["C[C@@H]1C[C@H]2O[C@@H]2/C=C\\C=C\\C(=O)Cc2c(Cl)c(O)cc(O)c2C(=O)O1 [RADICICOL]", 0.9],
  ["O=C1c2ccccc2-[n+]2ccc3c([nH]c4ccccc43)c21 [FASCAPLYSIN CHLORIDE]", -2.5],
  ["O=C1Nc2ccccc2/C1=C\\c1ccc[nH]1", 3.9],
  ["COc1cc2ncnc(Nc3ccc(F)c(Cl)c3)c2cc1OCCCN1CCOCC1", 1.2]
]}

---

These compounds were tested on 3-phosphoinositide-dependent protein kinase 1 (Homo sapiens); ΔTm is the recorded read-out.

{"columns": ["compound", "ΔTm (°C)"],
 "data": [
  ["COc1ccc(S(=O)(=O)N(CCO)c2ccccc2CN(C)C/C=C/c2ccc(Cl)cc2)cc1", 0.4],
  ["Nc1ncnc2c1c(I)cn2[C@@H]1O[C@H](CO)[C@@H](O)[C@H]1O", 0],
  ["O=C(O)Cc1ccc(O)c([N+](=O)[O-])c1", -0.6],
  ["COc1ccc(COc2ccc(Cc3cnc(N)nc3N)cc2OC)cc1", -0.9],
  ["CN(C)CC1CCn2c(c(C3=C(c4c[nH]c5ccccc45)C(=O)NC3=O)c3ccccc32)C1 (stereo not given)", -0.1],
  ["O=C1Cc2c([nH]c3ccc(Br)cc23)-c2ccccc2N1", -0.8],
  ["C#Cc1cccc(Nc2ncnc3cc(OCCOC)c(OCCOC)cc23)c1", 0],
  ["N#C/C(=C(/N)Sc1ccc(N)cc1)c1ccccc1C(F)(F)F", -0.1],
  ["Cc1cc(C=C2C(=O)C=CC2=O)cc(C)c1O", -0.4],
  ["O=c1c(-c2ccc(F)cc2)c(-c2ccncc2)[nH]n1-c1ccc(Cl)cc1", -1.2]
]}

---

target: Mitogen-activated protein kinase kinase kinase 5 (Homo sapiens) (UniProt Q99683)
Sequence (Q99683 whole entry): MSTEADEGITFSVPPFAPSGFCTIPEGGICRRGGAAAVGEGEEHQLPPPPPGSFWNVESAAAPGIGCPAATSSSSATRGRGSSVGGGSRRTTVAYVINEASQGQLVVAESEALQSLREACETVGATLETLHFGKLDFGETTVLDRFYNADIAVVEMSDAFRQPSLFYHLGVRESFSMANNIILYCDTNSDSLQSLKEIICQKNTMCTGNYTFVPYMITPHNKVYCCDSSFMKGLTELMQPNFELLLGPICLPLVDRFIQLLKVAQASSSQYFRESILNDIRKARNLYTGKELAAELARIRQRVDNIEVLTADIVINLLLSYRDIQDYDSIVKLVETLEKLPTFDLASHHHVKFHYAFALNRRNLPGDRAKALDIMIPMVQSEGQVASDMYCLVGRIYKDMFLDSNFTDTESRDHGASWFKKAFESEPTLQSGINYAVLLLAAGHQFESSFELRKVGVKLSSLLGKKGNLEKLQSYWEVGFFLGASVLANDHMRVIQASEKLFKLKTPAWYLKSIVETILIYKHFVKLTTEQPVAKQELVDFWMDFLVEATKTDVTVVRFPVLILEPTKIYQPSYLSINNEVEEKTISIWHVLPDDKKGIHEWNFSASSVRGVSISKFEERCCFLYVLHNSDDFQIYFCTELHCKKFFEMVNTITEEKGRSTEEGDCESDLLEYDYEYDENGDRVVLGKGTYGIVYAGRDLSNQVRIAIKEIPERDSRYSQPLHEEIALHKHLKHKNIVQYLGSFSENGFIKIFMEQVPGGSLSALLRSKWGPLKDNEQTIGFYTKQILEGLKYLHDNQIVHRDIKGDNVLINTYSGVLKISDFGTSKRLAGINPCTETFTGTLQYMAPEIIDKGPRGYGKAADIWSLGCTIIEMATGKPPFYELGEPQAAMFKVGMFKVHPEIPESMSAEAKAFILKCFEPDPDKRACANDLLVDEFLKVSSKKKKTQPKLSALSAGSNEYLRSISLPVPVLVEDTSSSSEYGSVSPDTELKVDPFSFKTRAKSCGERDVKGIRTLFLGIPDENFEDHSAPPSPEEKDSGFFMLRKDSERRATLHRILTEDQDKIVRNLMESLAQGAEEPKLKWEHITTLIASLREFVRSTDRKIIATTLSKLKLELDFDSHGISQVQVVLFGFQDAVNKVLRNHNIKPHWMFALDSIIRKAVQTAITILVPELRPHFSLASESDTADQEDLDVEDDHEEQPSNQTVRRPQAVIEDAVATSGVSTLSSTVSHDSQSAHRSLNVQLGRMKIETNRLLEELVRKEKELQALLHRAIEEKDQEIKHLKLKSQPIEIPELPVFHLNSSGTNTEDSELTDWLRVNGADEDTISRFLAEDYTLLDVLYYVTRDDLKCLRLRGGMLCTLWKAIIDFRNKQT
Quick rule for you: ΔTm under 0.3 °C gets yes (1), anything else gets no (0).

{"columns": ["smilesData", "experimentalTarget", "classLabel"],
 "data": [
  ["CCN(CC)CCNC(=O)c1c(C)[nH]c(/C=C2\\C(=O)Nc3ccc(Cl)cc32)c1C", "Mitogen-activated protein kinase kinase kinase 5 (Homo sapiens) (UniProt Q99683)", "no (0)"],
  ["CCOc1cc(/C=C(\\C#N)C(N)=O)cc(CSc2ccccc2)c1O", "Mitogen-activated protein kinase kinase kinase 5 (Homo sapiens) (UniProt Q99683)", "yes (1)"],
  ["CN[C@@H]1CC2O[C@@](C)([C@@H]1OC)n1c3ccccc3c3c4c(c5c6ccccc6n2c5c31)C(=O)NC4", "Mitogen-activated protein kinase kinase kinase 5 (Homo sapiens) (UniProt Q99683)", "no (0)"],
  ["N#C/C(=C\\c1ccc(O)c(O)c1)C(=O)NCc1ccccc1", "Mitogen-activated protein kinase kinase kinase 5 (Homo sapiens) (UniProt Q99683)", "yes (1)"]
]}

---

target: Serine/threonine-protein kinase Nek2 (Homo sapiens) (UniProt P51955)
Sequence (P51955 whole entry): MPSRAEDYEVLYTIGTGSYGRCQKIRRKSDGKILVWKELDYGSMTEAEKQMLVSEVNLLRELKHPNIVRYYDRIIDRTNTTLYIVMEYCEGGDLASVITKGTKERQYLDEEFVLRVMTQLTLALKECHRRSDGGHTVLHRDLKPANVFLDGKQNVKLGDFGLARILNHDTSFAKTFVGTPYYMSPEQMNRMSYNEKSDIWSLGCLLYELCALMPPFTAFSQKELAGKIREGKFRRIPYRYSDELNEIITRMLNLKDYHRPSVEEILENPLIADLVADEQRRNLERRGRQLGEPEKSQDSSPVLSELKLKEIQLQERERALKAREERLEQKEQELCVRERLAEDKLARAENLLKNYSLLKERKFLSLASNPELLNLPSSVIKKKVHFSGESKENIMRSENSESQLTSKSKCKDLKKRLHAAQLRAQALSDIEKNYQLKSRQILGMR
Quick rule for you: ΔTm under 0.9 °C gets Fulfilled, anything else gets Not fulfilled.

{"columns": ["compound", "experimentalTarget", "classLabel"],
 "data": [
  ["N#C/C(=C(/N)Sc1ccc(N)cc1)c1ccccc1C(F)(F)F", "Serine/threonine-protein kinase Nek2 (Homo sapiens) (UniProt P51955)", "Not fulfilled"],
  ["COc1ccc(S(=O)(=O)N(CCO)c2ccccc2CN(C)C/C=C/c2ccc(Cl)cc2)cc1", "Serine/threonine-protein kinase Nek2 (Homo sapiens) (UniProt P51955)", "Fulfilled"],
  ["C[C@@H]1C[C@H]2O[C@@H]2/C=C\\C=C\\C(=O)Cc2c(Cl)c(O)cc(O)c2C(=O)O1 [RADICICOL]", "Serine/threonine-protein kinase Nek2 (Homo sapiens) (UniProt P51955)", "Fulfilled"],
  ["CC(C)N(CCO)c1nc(Nc2cccc(Cl)c2)c2ncn(C(C)C)c2n1", "Serine/threonine-protein kinase Nek2 (Homo sapiens) (UniProt P51955)", "Fulfilled"],
  ["CC(C)n1cnc2c(NCc3ccccc3O)nc(NCCCO)nc21", "Serine/threonine-protein kinase Nek2 (Homo sapiens) (UniProt P51955)", "Fulfilled"],
  ["Nc1n[nH]c2nnc(-c3c(-c4ccccc4)nn4ccccc34)cc12", "Serine/threonine-protein kinase Nek2 (Homo sapiens) (UniProt P51955)", "Fulfilled"],
  ["O=C1c2ccccc2-[n+]2ccc3c([nH]c4ccccc43)c21 [FASCAPLYSIN CHLORIDE]", "Serine/threonine-protein kinase Nek2 (Homo sapiens) (UniProt P51955)", "Fulfilled"],
  ["O=c1cc(-c2ccc(O)cc2)oc2cc(O)cc(O)c12", "Serine/threonine-protein kinase Nek2 (Homo sapiens) (UniProt P51955)", "Not fulfilled"],
  ["COc1cc2ncnc(Nc3ccc(F)c(Cl)c3)c2cc1OCCCN1CCOCC1", "Serine/threonine-protein kinase Nek2 (Homo sapiens) (UniProt P51955)", "Not fulfilled"],
  ["COc1cc2ncnc(Nc3cccc(O)c3)c2cc1OC", "Serine/threonine-protein kinase Nek2 (Homo sapiens) (UniProt P51955)", "Fulfilled"],
  ["Ic1cccc(CSc2nnc(-c3ccncc3)o2)c1", "Serine/threonine-protein kinase Nek2 (Homo sapiens) (UniProt P51955)", "Fulfilled"],
  ["O=C1Nc2ccccc2/C1=C\\c1ccc[nH]1", "Serine/threonine-protein kinase Nek2 (Homo sapiens) (UniProt P51955)", "Not fulfilled"],
  ["CN(C)C[C@@H]1CCn2cc(c3ccccc32)C2=C(C(=O)NC2=O)c2cn(c3ccccc23)CCO1 [RUBOXISTAURIN]", "Serine/threonine-protein kinase Nek2 (Homo sapiens) (UniProt P51955)", "Not fulfilled"],
  ["Nc1nc(Nc2ccc(S(N)(=O)=O)cc2)nn1C(=S)Nc1c(F)cccc1F", "Serine/threonine-protein kinase Nek2 (Homo sapiens) (UniProt P51955)", "Not fulfilled"],
  ["CN(C)CC1CCn2c(c(C3=C(c4c[nH]c5ccccc45)C(=O)NC3=O)c3ccccc32)C1 (stereo unspecified)", "Serine/threonine-protein kinase Nek2 (Homo sapiens) (UniProt P51955)", "Not fulfilled"],
  ["Nc1ncnc2c1c(I)cn2[C@@H]1O[C@H](CO)[C@@H](O)[C@H]1O", "Serine/threonine-protein kinase Nek2 (Homo sapiens) (UniProt P51955)", "Fulfilled"],
  ["O=c1c(O)c(-c2ccc(O)c(O)c2)oc2cc(O)cc(O)c12 [QUERCETIN]", "Serine/threonine-protein kinase Nek2 (Homo sapiens) (UniProt P51955)", "Not fulfilled"],
  ["NC(=O)c1ccc(-c2nc(-c3ccc4c(c3)OCCO4)c(-c3ccccn3)[nH]2)cc1", "Serine/threonine-protein kinase Nek2 (Homo sapiens) (UniProt P51955)", "Not fulfilled"]
]}

---

These molecules were tested on TRAF2 and NCK-interacting protein kinase (Homo sapiens); ΔTm is the recorded read-out.
propertyName: ΔTm

{"columns": ["smilesData", "experimentalTarget", "result"],
 "data": [
  ["C[C@@H]1C[C@H]2O[C@@H]2/C=C\\C=C\\C(=O)Cc2c(Cl)c(O)cc(O)c2C(=O)O1", "TRAF2 and NCK-interacting protein kinase (Homo sapiens)", "-0.3 °C"],
  ["Cc1nc(N)sc1-c1ccnc(Nc2cccc([N+](=O)[O-])c2)n1", "TRAF2 and NCK-interacting protein kinase (Homo sapiens)", "0.9 °C"],
  ["Cc1cc(Nc2nc(-c3ccccc3)nc3ccccc23)n[nH]1", "TRAF2 and NCK-interacting protein kinase (Homo sapiens)", "-1 °C"],
  ["O=C1Nc2cc(Br)ccc2/C1=C1/Nc2ccccc2/C1=N\\O", "TRAF2 and NCK-interacting protein kinase (Homo sapiens)", "1.6 °C"],
  ["O=[N+]([O-])c1ccc(-c2nc(-c3ccc(F)cc3)c(-c3ccncc3)[nH]2)cc1", "TRAF2 and NCK-interacting protein kinase (Homo sapiens)", "4.6 °C"],
  ["Cn1cnc2c(NCc3ccccc3)nc(NCCO)nc21", "TRAF2 and NCK-interacting protein kinase (Homo sapiens)", "0.3 °C"],
  ["Nc1cccc(-c2cc3c(Oc4cccc(O)c4)ncnc3[nH]2)c1", "TRAF2 and NCK-interacting protein kinase (Homo sapiens)", "-0.4 °C"],
  ["CC(C)n1cnc2c(NCc3ccccc3)nc(NCCCO)nc21", "TRAF2 and NCK-interacting protein kinase (Homo sapiens)", "0.4 °C"],
  ["CN(C)CCCn1cc(C2=C(c3c[nH]c4ccccc34)C(=O)NC2=O)c2ccccc21", "TRAF2 and NCK-interacting protein kinase (Homo sapiens)", "2 °C"]
]}
